All values here come from ChEMBL document CHEMBL4190216.

Quick reference for concentration at 3 h among some compounds
Experiment: Plasma concentration in Sprague-Dawley rat at 10 mg/kg administered via oral gavage measured at 3 hrs by HPLC-MS/MS analysis
Type: ADME, organism-based

# Compound, Value Unit, concentration at 3 h
rows = [
    ("CC(C)n1c(/C=C/C(=O)/C=C/c2ccccn2)nc2ccccc21", "ng/mL", 4260),
    ("CCCn1ccnc1/C=C/C(=O)/C=C/c1nc2ccccc2n1CCC", "ng/mL", 196),
    ("CCC(C)n1ccnc1/C=C/C(=O)/C=C/c1sc(C)nc1C(F)(F)F (centres undefined)", "ng/mL", 672),
    ("CCn1c(/C=C/C(=O)/C=C/c2sc(C)nc2C(F)(F)F)nc2ccccc21", "ng/mL", 982),
]
